Molecular target: Cytochrome P450 3A4 (Homo sapiens)
Assay: qHTS Assay for Activators of Cytochrome P450 3A4 (AID 885); further: nearly all actives have a fitted effect of over 65% in size
Conditions: recombinant CYP3A4, Luciferin-PPXE luminescence, 60 min; series mostly up to 57.1 µM
The source made the active and inactive calls. The call rests on the fitted dose curve; in most records, active means well fitted activation curve with a large enough effect; inconclusive means small, poorly fitted or top-dose-only effect; inactive means no such curve, though single readings can be large or run the other way.
Lab note: assign the record to one of active, inactive

Solved cases below.
- molecule: "CN(C(=O)Cc1ccc(Cl)c(Cl)c1)[C@H](CN1CCCC1)c1ccccc1"
  subject of test: "Cytochrome P450 3A4 (Homo sapiens)"
  assigned label: "inactive"
- molecule: "OC1(c2ccc(Cl)cc2)CCN(Cc2c[nH]c3ccccc23)CC1"
  subject of test: "Cytochrome P450 3A4 (Homo sapiens)"
  assigned label: "active"
- molecule: "COC(=O)c1cc2c(cn1)[nH]c1ccccc12"
  subject of test: "Cytochrome P450 3A4 (Homo sapiens)"
  assigned label: "active"
- molecule: "N#C/C(=C\\c1ccc(O)c(O)c1)C(=O)NCCCNC(=O)/C(C#N)=C/c1ccc(O)c(O)c1"
  subject of test: "Cytochrome P450 3A4 (Homo sapiens)"
  assigned label: "inactive"
- molecule: "CS(=O)(=O)Nc1ccc(Cc2noc(-c3ccc4[nH]cc(CCN)c4c3)n2)cc1"
  subject of test: "Cytochrome P450 3A4 (Homo sapiens)"
  assigned label: "inactive"

Request: Which outcome was assigned to O=C1/C(=C\c2ccccc2)C[C@@]2(O)[C@H]3Cc4ccc(O)c5c4[C@@]2(CCN3CC2CC2)[C@@H]1O5 in this test?
Result: inactive

Request: Which outcome was assigned to c1ccc(Nc2ccc3ccccc3c2)cc1 in this test?
Result: inactive

Request: Which outcome was assigned to COc1c2ccoc2cc2oc(=O)ccc12 in this test?
Result: inactive

Request: Which outcome was assigned to O=C(Cc1ccc(Cl)c(Cl)c1)N1CCCC[C@H]1CN1CCCC1 in this test?
Result: inactive

Request: Which outcome was assigned to O=C(O)c1ccccc1-c1c2cc(Br)c(=O)cc-2oc2[c]([Hg])c(O)c(Br)cc12 in this test?
Result: inactive

Request: Which outcome was assigned to COC1=CC(=O)OC(CCc2ccc3c(c2)OCO3)C1 (stereo unspecified) in this test?
Result: inactive

Request: Which outcome was assigned to Brc1c(Br)c(Br)c2n[nH]nc2c1Br in this test?
Result: inactive

Request: Which outcome was assigned to Cc1cc(O)c2c(c1)C(=O)c1cc(O)cc(O)c1C2=O in this test?
Result: inactive

Request: Which outcome was assigned to Oc1ccc(-c2nc(-c3ccc(F)cc3)c(-c3ccncc3)[nH]2)cc1 in this test?
Result: inactive

Request: Which outcome was assigned to Nc1nc(OCc2ccccc2)c2[nH]cnc2n1 in this test?
Result: inactive

Request: Which outcome was assigned to C[C@]12N[C@@H](Cc3ccccc31)c1ccccc12 in this test?
Result: inactive

* * *

Assay: qHTS for Inhibitors of the Functional Ribonucleoprotein Complex (vRNP) of Lymphocytic Choriomeningitis Arenaviruses (LCMV): Viability assay - alamar blue signal for LCMV Primary Screen (AID 1347085); further: nearly all actives have a fitted effect of over 80% in size
Conditions: alamar blue viability counter-screen, LCMV vRNP screen cells; series mostly up to 57.5 µM
Inconclusive results are not listed. Active and inactive are the calls of the source. Calls follow the shape of the full dose curve; tested in HEK293 reporter line.
Lab note: assign the record to one of active, inactive

- molecule: "CCCCCCCCCCCC"
  assigned label: "inactive"
- molecule: "O=C1CCC(c2ccc(-n3ccnc3)cc2)=NN1"
  assigned label: "inactive"
- molecule: "CC(CCC(=O)O)C1CCC2C3CC(O)C4CC(O)CC[C@]4(C)C3CCC12C (some centres not stated)"
  assigned label: "inactive"
- molecule: "CC1=C2C(=O)OC(c3ccoc3)C2(C)CCC1 (configuration not stated)"
  assigned label: "inactive"

Request: Which outcome was assigned to Cc1cc(Nc2cc(NC(=O)c3c(Cl)cccc3Cl)ccn2)nc(N)n1 in this test?
Result: active

Request: Which outcome was assigned to CCNC(=O)Nc1ccc(Oc2ncnc(N)c2C=NOC)cc1Cl in this test?
Result: inactive

* * *

System: OV90
Test: Primary qHTS to identify gynecologic anti-cancer compounds using libraries of approved drugs and bioactive compounds (AID 1345084); further: nearly all actives have a fitted effect of over 55% in size
Conditions: Gynecologic cancer cell panel viability, ATPlite luminescence, 48 h; series mostly up to 57.5 µM
Results filed as inconclusive are left out. Calls of active or inactive are those of the source. Calls follow the shape of the dose curve; as a rule, active = well fitted cell-killing curve with a large enough effect; inconclusive = small, poorly fitted or top-dose-only effect, or effect the other way; inactive = flat fitted curve, though single readings scatter. *1 amine or outer side, *2 acyl side, *3 side chain or, on linkers, in order; H or OH if unused. Where a SMILES comes first, the peptide text is derived from it. [ ]: non-standard residue; d: D form. X7 = O=C([C@@H](CC(O)CCl)O[*:1])[*:2]; aIle = CC[C@@H](C)[C@H](N)C(=O)O; NMeV = CN[C@H](C(=O)O)C(C)C; NMeA = CN[C@@H](C)C(=O)O; βAla = NCCC(=O)O
Lab note: assign the record to one of active, inactive

Solved cases below.
- molecule: "OCc1nnc2n1-c1ccc(Cl)cc1C(c1ccccc1Cl)=NC2"
  subject of test: "OV90"
  assigned label: "inactive"
- molecule: "CCC1=CC2CN3CCc4c([nH]c5ccccc45)[C@@](C(=O)OC)(C2)[C@@H]13"
  subject of test: "OV90"
  assigned label: "inactive"
- molecule: "CC[C@@H](C)[C@@H]1NC(=O)[C@@H]2CCCN2C(=O)[C@@H](CC(O)CCl)OC(=O)CCNC(=O)[C@H](C)N(C)C(=O)[C@H](C(C)C)N(C)C1=O (some centres undefined) (cyclo([NMeA][βAla][X7]P[aIle][NMeV]))"
  subject of test: "OV90"
  assigned label: "active"

Request: Which outcome was assigned to C/C=C(\C)C(O)C(C)/C=C(C)/C=C/C/C(C)=C/Cc1nc(OC)c(OC)c(O[C@@H]2O[C@@H](C)[C@H](O)[C@@H](O)[C@H]2O)c1C (some centres undefined) in this test?
Result: inactive

* * *

Tested on: Es-2
Experiment: Primary qHTS to identify gynecologic anti-cancer compounds using libraries of approved drugs and bioactive compounds (AID 1345084); further: nearly all actives have a fitted effect of over 55% in size
Conditions: Gynecologic cancer cell panel viability, ATPlite luminescence, 48 h; series mostly up to 57.5 µM
Inconclusive results are not listed. Calls of active or inactive are those of the source. Calls come from the whole dose curve; as a rule, active = well fitted cell-killing curve with a large enough effect; inconclusive = small, poorly fitted or top-dose-only effect, or effect the other way; inactive = flat fitted curve, though single readings scatter.
Lab note: assign the record to one of active, inactive

Solved cases below.
- compound: "COc1ccc2c3c([nH]c2c1)C(C=C(C)C)N1C(=O)C2CCCN2C(=O)C1C3 (stereo unspecified)"
  assigned label: "inactive"
- compound: "CO[C@@H]1C[C@H](O[C@H]2CC[C@@]3(C)C(CCC4C3CC[C@]3(C)[C@@H](C5=CC(=O)OC5)[C@@H](OC(C)=O)CC43O)C2)O[C@H](C)[C@@H]1O[C@H]1O[C@H](CO[C@@H]2O[C@H](CO)[C@@H](O)[C@H](O)[C@H]2O)[C@@H](O)[C@H](O)[C@H]1O (stereo partly specified)"
  assigned label: "active"
- compound: "CCCCCCC1C(=O)O[C@H](C)[C@H](NC(=O)c2cccc(NC=O)c2O)C(=O)O[C@@H](C)[C@@H]1OC(=O)CC(C)C (stereo partly specified)"
  assigned label: "active"
- compound: "CS[C@]1(CO)C(=O)N2[C@H]3C(=CC=C[C@@H]3O)C[C@@]2(SC)C(=O)N1C"
  assigned label: "inactive"
- compound: "CN1CCc2cc3c(cc2C1C1OC(=O)c2c1ccc1c2OCO1)OCO3 (stereo unspecified)"
  assigned label: "inactive"

Request: Which outcome was assigned to CO/C1=C\C(C)=C\[C@@H](C)[C@@H](O)[C@@H](C)C/C(C)=C/C=C/[C@H](OC)[C@@H]([C@@H](C)[C@@H](O)[C@H](C)[C@@]2(O)C[C@@H](O)[C@H](C)[C@@H](C(C)C)O2)OC1=O in this test?
Result: active

Request: Which outcome was assigned to C=CC(C)(C)c1[nH]c2c(CC=C(C)C)cc(CC=C(C)C)cc2c1C[C@@H]1NC(=O)[C@H](C)NC1=O in this test?
Result: inactive

* * *

Assay: qHTS for Inhibitors of the Functional Ribonucleoprotein Complex (vRNP) of Lassa (LASV) Arenavirus: Viability assay - alamar blue signal for LASV Primary Screen (AID 1347083); further: nearly all actives have a fitted effect of over 80% in size; further: potency means the concentration at half of the fitted maximal effect
Details: cell viability, alamar blue fluorescence (LASV minigenome counter-screen); series mostly up to 57.5 µM
Records with an inconclusive call do not appear. The source made the active and inactive calls. The call rests on the fitted dose curve; tested in HEK293 reporter line.
parameter: Potency

Consider the reported Potency for these compounds:
- compound: "CCCNC(=O)Nc1ccc(Oc2ncnc3cc(OC)c(OC)cc23)cc1Cl"
  data value: "inactive"
- compound: "C[C@]1(c2nc3c(C(N)=O)cccc3[nH]2)CCCN1"
  data value: "2730 nM (active)"
- compound: "CC1=CC2=C(C=O)C(=O)C(C)(O)C(O)C2=CO1 (stereo not given)"
  data value: "inactive"
- compound: "CC(/C=C/C=C(\\C)C(=O)O[C@@H]1O[C@H](CO[C@@H]2O[C@H](CO)[C@@H](O)[C@H](O)[C@H]2O)[C@@H](O)[C@H](O)[C@H]1O)=C\\C=C\\C=C(C)\\C=C\\C=C(/C)C(=O)O[C@@H]1O[C@H](CO[C@@H]2O[C@H](CO)[C@@H](O)[C@H](O)[C@H]2O)[C@@H](O)[C@H](O)[C@H]1O"
  data value: "inactive"
- compound: "COc1c2c(nc3ccccc13)OC(C(C)(O)COC(C)=O)C2 (stereo not given)"
  data value: "inactive"

Request: Record request: Potency value, item CCCC(=O)OCc1ccccc1
Result: inactive

Request: Record request: Potency value, item CC(C)c1nn(-c2c(Cl)cccc2Cl)c2nc(Cc3ccc(OCCO)cc3)[nH]c(=O)c12
Result: 217 nM (active)

Request: Record request: Potency value, item CN=c1nc(-c2ccccc2)n(-c2ccccc2)s1
Result: inactive

Request: Record request: Potency value, item COc1ccc(/C=C/C(=O)Nc2ccccc2C(=O)O)cc1OC
Result: inactive

Request: Record request: Potency value, item COC(=O)c1ccc(C)cc1
Result: inactive
